We begin with a simple list: items and their reported IC50.
- measurementTarget: His-tagged recombinant human AXL cytoplasmic domain (Homo sapiens (Human), UniProt P30530)
- Sequence (P30530 473-894): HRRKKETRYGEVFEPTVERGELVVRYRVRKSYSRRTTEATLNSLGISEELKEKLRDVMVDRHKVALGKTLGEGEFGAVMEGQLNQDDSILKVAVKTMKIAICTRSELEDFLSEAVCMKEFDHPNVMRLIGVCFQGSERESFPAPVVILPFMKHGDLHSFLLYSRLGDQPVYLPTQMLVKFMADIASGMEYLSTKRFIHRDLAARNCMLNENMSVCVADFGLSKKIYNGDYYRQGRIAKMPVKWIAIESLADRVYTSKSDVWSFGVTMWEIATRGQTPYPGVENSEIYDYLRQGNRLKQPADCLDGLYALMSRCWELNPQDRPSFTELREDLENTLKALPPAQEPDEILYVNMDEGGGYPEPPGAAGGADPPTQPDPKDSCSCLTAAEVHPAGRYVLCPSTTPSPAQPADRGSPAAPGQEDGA
- conditionsUsed: read-out: AXL enzyme IC50
measurementLabel: IC50

> print(dat)
                                   compound                         measurementtarget  measurementlabel  experimentalvalue
1  C[C@H](CO)Nc1n[nH]c2nccc(Oc3ccc(NC(=O)C4CC5(CC5)CN(c5ccc(F)cc5)C4=O)cc3F)c12 (some centres unmarked)  His-tagged recombinant human AXL cytoplasmic domain (Homo sapiens (Human), UniProt P30530)              IC50             355 nM
2  C[C@H](CO)Nc1n[nH]c2nccc(Oc3ccc(NC(=O)C4(C)CCCN(c5ccc(F)cc5)C4=O)cc3F)c12 (some centres unmarked)  His-tagged recombinant human AXL cytoplasmic domain (Homo sapiens (Human), UniProt P30530)              IC50             485 nM
